- testParameters: [M+NH4]+; instrument: TW; calibrated with polyalanine
# maps each entry to its collision cross section (N2)

{"cpdSmiles": "CC(=O)OC[C@]12C[C@H](O)C(C)=C[C@H]1O[C@@H]1[C@H](O)[C@@H](OC(C)=O)[C@@]2(C)[C@]12CO2", "collision cross section (N2) / Å²": 198}
{"cpdSmiles": "CC(=O)OC[C@]12C[C@H](OC(=O)CC(C)C)C(C)=C[C@H]1O[C@@H]1[C@H](O)[C@@H](OC(C)=O)[C@@]2(C)[C@]12CO2", "collision cross section (N2) / Å²": 214}
{"cpdSmiles": "CC(=O)OC[C@]12CCC(C)=C[C@H]1O[C@@H]1[C@H](O)[C@@H](OC(C)=O)[C@@]2(C)[C@@]12CO2", "collision cross section (N2) / Å²": 192}
{"cpdSmiles": "CC[C@H](C)[C@H]1C(=O)O[C@H](C(C)C)C(=O)N(C)[C@@H](C(C)C)C(=O)O[C@H](C(C)C)C(=O)N(C)[C@@H](C(C)C)C(=O)O[C@H](C(C)C)C(=O)N1C", "collision cross section (N2) / Å²": 253}
